target_system: T1, AnkB_MBD Asn595Ala (human, UniProt Q01484-2 28-827, Asn595Ala)
T1 sequence: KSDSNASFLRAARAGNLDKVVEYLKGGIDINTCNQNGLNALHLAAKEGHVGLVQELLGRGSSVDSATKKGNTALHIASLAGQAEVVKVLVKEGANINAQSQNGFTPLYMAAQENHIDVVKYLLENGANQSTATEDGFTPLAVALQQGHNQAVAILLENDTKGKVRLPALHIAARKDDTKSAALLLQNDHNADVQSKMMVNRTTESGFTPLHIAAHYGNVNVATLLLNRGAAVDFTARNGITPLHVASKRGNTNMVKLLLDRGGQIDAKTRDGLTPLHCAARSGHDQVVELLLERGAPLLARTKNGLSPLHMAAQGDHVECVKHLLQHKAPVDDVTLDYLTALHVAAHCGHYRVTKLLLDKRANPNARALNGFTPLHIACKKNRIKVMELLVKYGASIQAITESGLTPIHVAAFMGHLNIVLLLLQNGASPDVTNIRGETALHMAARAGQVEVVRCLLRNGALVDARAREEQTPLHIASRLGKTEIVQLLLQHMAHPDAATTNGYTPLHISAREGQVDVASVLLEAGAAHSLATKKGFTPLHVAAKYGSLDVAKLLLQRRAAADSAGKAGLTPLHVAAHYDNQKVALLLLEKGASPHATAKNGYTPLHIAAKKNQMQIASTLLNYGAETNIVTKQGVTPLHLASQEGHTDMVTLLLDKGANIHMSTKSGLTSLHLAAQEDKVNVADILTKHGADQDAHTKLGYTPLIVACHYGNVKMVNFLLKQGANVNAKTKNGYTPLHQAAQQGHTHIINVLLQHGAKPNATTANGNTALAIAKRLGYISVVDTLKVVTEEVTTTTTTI
assay: ITC

{"binder": "TEKHKLNVPETMTEVLDVSDEEGDD (domain or fragment) [AnkB_AI-c (aa 828–852)]", "Kd, nM": 2400}
